REPORTED_ENDPOINT: melting point

Find the measured melting point of CC(C)c1ccc(C=CCC(=O)O)cc1 and report it.
49 to 51 °C

---

Below is a list of entries, each paired with its recorded melting point value.

A selection of reference data follows.
{"CPD_SMILES": "COc1cc([N+](=O)[O-])ccc1NC(=O)CCCl", "REPORTED_ENDPOINT": "melting point", "READOUT_VALUE": "144 to 146 °C"}
{"CPD_SMILES": "C=CCSc1nc2ccccc2[nH]1", "REPORTED_ENDPOINT": "melting point", "READOUT_VALUE": "139 to 141 °C"}
{"CPD_SMILES": "CC(C)c1nccc(O)n1", "REPORTED_ENDPOINT": "melting point", "READOUT_VALUE": "239 to 241 °C"}
{"CPD_SMILES": "COC(=O)Cc1cc(O)n[nH]1", "REPORTED_ENDPOINT": "melting point", "READOUT_VALUE": "143 to 145 °C"}
{"CPD_SMILES": "Clc1nc(-c2ccccn2)nc2sc(-c3ccccc3)cc12", "REPORTED_ENDPOINT": "melting point", "READOUT_VALUE": "186 to 188 °C"}
{"CPD_SMILES": "Cc1nc2cc(F)cc(C(=O)O)c2nc1C", "REPORTED_ENDPOINT": "melting point", "READOUT_VALUE": "226 to 228 °C"}

Find the measured melting point of COC(=O)c1ccc(Br)c(C)c1N and report it.
79 to 81 °C

---

REPORTED_ENDPOINT: melting point

A selection of reference data follows.
{"COMPOUND": "ClCc1csc(-c2ccccc2Cl)n1", "READOUT_VALUE": "55 to 57 °C"}
{"COMPOUND": "NC(Cc1cccs1)=NO", "READOUT_VALUE": "79 to 82 °C"}
{"COMPOUND": "Cc1nn2c(=O)cc(CCl)nc2s1", "READOUT_VALUE": "210 to 212 °C"}
{"COMPOUND": "CN(c1ccccc1N)S(C)(=O)=O", "READOUT_VALUE": "138 to 140 °C"}
{"COMPOUND": "CS(=O)(=O)NC1CCCNC1 (centres undefined)", "READOUT_VALUE": "123 to 125 °C"}
{"COMPOUND": "NCc1cccc(N)n1", "READOUT_VALUE": "93 to 95 °C"}

Find the measured melting point of O=C(O)c1ccnc(-n2cncn2)c1 and report it.
314 to 316 °C

Find the measured melting point of C=CS(=O)(=O)c1ccc([N+](=O)[O-])cc1 and report it.
112 to 114 °C

Find the measured melting point of O=C(CCl)N1CCN(S(=O)(=O)c2ccc([N+](=O)[O-])cc2)CC1 and report it.
187 to 189 °C

Find the measured melting point of COC(=O)c1ccc(C(F)(F)F)cc1N and report it.
58 to 60 °C

Find the measured melting point of Cc1noc(-c2ccccc2N)n1 and report it.
120 to 122 °C

Find the measured melting point of CNc1cc(C(=O)OC)ccc1N and report it.
79 to 81 °C

Find the measured melting point of Cc1ccc(Cl)cc1NC(=O)CC#N and report it.
190 to 192 °C

Find the measured melting point of CCOC(=O)c1nnc(N)s1 and report it.
197 to 199 °C

Find the measured melting point of CC(=O)N1CCN(Cc2cccc(N)n2)CC1 and report it.
169 to 171 °C

Find the measured melting point of CC(=NO)c1ccc(OCc2ccc(F)cc2)cc1 and report it.
151 to 153 °C

Find the measured melting point of O=C(O)c1ccc(Oc2ccccc2[N+](=O)[O-])cc1 and report it.
196 to 198 °C

Find the measured melting point of CN(C)c1cc(C(=O)O)c2ccccc2n1 and report it.
259 to 261 °C

Find the measured melting point of C=CCc1cc(C(=O)O)cc(OC)c1OC and report it.
124 to 126 °C

---

Below is a list of entries, each paired with its recorded melting point value.

A selection of reference data follows.
{"CPD_SMILES": "COC(=O)c1cc([N+](=O)[O-])c(F)cc1Cl", "REPORTED_ENDPOINT": "melting point", "READOUT_VALUE": "59 to 61 °C"}
{"CPD_SMILES": "c1ccc2c(c1)nc1n2CCN1", "REPORTED_ENDPOINT": "melting point", "READOUT_VALUE": "194 to 206 °C"}
{"CPD_SMILES": "O=C(CCl)Nc1ccc(OC(F)(F)F)cc1", "REPORTED_ENDPOINT": "melting point", "READOUT_VALUE": "71 to 74 °C"}
{"CPD_SMILES": "NC(=S)Nc1ccccc1Oc1ccccc1", "REPORTED_ENDPOINT": "melting point", "READOUT_VALUE": "125 to 127 °C"}

Find the measured melting point of O=[N+]([O-])c1cnc(Br)c(Br)c1 and report it.
76 to 78 °C

Find the measured melting point of O=Cc1ccc(-n2cncn2)c(F)c1 and report it.
127 to 129 °C

Find the measured melting point of O=Cc1ccccc1OCC(F)(F)F and report it.
51 to 53 °C

---

Below is a list of entries, each paired with its recorded melting point value.

A selection of reference data follows.
{"COMPOUND": "CNc1cc(Cl)ncn1", "READOUT_VALUE": "138 to 140 °C"}
{"COMPOUND": "NC(=O)C1CCCN1Cc1ccccc1N (stereo not drawn)", "READOUT_VALUE": "121 to 123 °C"}
{"COMPOUND": "NC(=O)c1cc(Cl)nnc1Cl", "READOUT_VALUE": "176 to 178 °C"}

Find the measured melting point of Cc1cc(S(=O)(=O)Cl)cc([N+](=O)[O-])c1C and report it.
127 to 129 °C

Find the measured melting point of O=C(O)c1cc(Cl)nc(Oc2ccc(Br)cc2)c1 and report it.
213 to 215 °C

Find the measured melting point of O=C(c1cccc(F)c1)N1CCCNCC1 and report it.
49 to 51 °C

Find the measured melting point of CS(=O)(=O)c1ccc(S(N)(=O)=O)cc1 and report it.
246 to 248 °C

---

REPORTED_ENDPOINT: melting point

{"COMPOUND": "COc1ccc(CCNC(=O)c2ccccc2N)cc1", "READOUT_VALUE": "80 to 82 °C"}
{"COMPOUND": "CC(O)c1ccc(N(C)Cc2ccccn2)c(F)c1 (stereo not drawn)", "READOUT_VALUE": "73 to 75 °C"}
{"COMPOUND": "O=Cc1csc(-c2ccco2)n1", "READOUT_VALUE": "90 to 92 °C"}
{"COMPOUND": "CC(C)(C)NS(=O)(=O)c1cc(C(=O)O)ccc1Br", "READOUT_VALUE": "217 to 219 °C"}
{"COMPOUND": "CN1CCC(Oc2ccc(C(=O)O)cc2)CC1", "READOUT_VALUE": "218 to 220 °C"}
{"COMPOUND": "NC(=O)C(F)(F)c1ccccc1", "READOUT_VALUE": "116 to 118 °C"}
{"COMPOUND": "O=C(O)CCc1ccc2ccccc2c1", "READOUT_VALUE": "135 to 137 °C"}
{"COMPOUND": "CC(=O)c1ccc(Oc2ccc(Br)cc2)cc1", "READOUT_VALUE": "79 to 81 °C"}

Find the measured melting point of Cc1[nH]c2ccccc2c1C(=O)C(=O)O and report it.
199 to 201 °C

Find the measured melting point of O=C(O)c1csc(-c2ccc(O)cc2)n1 and report it.
214 to 216 °C

---

Below is a list of entries, each paired with its recorded melting point value.

A selection of reference data follows.
{"CPD_SMILES": "CC(=O)Nc1cc(C)c(S(=O)(=O)Cl)cc1Br", "melting point": "109 to 111 °C"}
{"CPD_SMILES": "NC(=S)NCC1CCC1", "melting point": "123 to 125 °C"}
{"CPD_SMILES": "Clc1ccnc(-c2ccccc2)n1", "melting point": "69 to 71 °C"}

Find the measured melting point of COc1ccccc1-c1c[nH]cc1C(=O)O and report it.
195 to 197 °C

Find the measured melting point of CC1(C)Cc2c(sc(N)c2C#N)C(C)(C)N1 and report it.
197 to 199 °C

Find the measured melting point of COC(=O)c1c[nH]nn1 and report it.
139 to 141 °C

Find the measured melting point of CC(C)c1noc(-c2cc(Cl)ccc2N)n1 and report it.
93 to 95 °C

Taken from a melting point compilation (Tetko et al.).
